Molecular target: Cytochrome P450 11B2, mitochondrial (Homo sapiens, UniProt P19099)
Sequence (P19099 whole entry): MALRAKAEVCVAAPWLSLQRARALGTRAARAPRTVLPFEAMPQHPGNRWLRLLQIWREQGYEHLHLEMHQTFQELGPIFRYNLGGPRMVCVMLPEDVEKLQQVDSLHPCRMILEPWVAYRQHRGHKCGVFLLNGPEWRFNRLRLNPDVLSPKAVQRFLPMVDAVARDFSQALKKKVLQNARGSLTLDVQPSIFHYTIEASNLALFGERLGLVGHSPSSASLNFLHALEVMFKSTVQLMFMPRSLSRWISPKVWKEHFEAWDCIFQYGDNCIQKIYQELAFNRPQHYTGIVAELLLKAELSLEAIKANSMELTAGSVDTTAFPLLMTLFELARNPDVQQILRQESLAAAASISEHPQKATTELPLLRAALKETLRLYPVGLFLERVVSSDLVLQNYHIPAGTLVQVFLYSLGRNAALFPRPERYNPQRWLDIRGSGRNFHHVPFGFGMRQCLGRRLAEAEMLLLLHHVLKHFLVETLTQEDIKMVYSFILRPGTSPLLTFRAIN
Assay: Inhibition of human CYP11B2 expressed in hamster V79MZh cells using [1,2-3H]-11-deoxycorticosterone as substrate after 30 mins by HPTLC analysis
Mark class 1 for IC50 under 80 nM, class 0 if at or over.

Q. # TODO verify IC50 < 80 nM strictly for this molecule: O=c1c2ccc(Cl)cc2oc2cc(Cn3ccnc3)ccc12
A. class 0

Q. # TODO verify IC50 < 80 nM strictly for this molecule: COc1ccc2c(=O)c3ccc(Cn4ccnc4)cc3oc2c1
A. class 1

Q. # TODO verify IC50 < 80 nM strictly for this molecule: O=c1c2ccccc2oc2ccc(Cn3ccnc3)cc12
A. class 0

Q. # TODO verify IC50 < 80 nM strictly for this molecule: CC(C)Oc1ccc2c(=O)c3ccc(Cn4ccnc4)cc3oc2c1
A. class 1

Q. # TODO verify IC50 < 80 nM strictly for this molecule: O=c1c2ccccc2oc2cc(Cn3ccnc3)ccc12
A. class 0

Q. # TODO verify IC50 < 80 nM strictly for this molecule: O=c1c2ccc(Cn3ccnc3)cc2oc2cc(Oc3ccccc3)ccc12
A. class 1

Q. # TODO verify IC50 < 80 nM strictly for this molecule: O=c1c2ccc(Cn3ccnc3)cc2oc2cc([N+](=O)[O-])ccc12
A. class 0

Q. # TODO verify IC50 < 80 nM strictly for this molecule: O=c1c2ccc(Cn3ccnc3)cc2oc2cc(OCC3CC3)ccc12
A. class 1

Q. # TODO verify IC50 < 80 nM strictly for this molecule: O=c1c2ccccc2oc2c(Cn3ccnc3)cccc12
A. class 1

Q. # TODO verify IC50 < 80 nM strictly for this molecule: O=c1c2ccccc2oc2cccc(Cn3ccnc3)c12
A. class 0

Q. # TODO verify IC50 < 80 nM strictly for this molecule: O=c1c2ccc(Br)cc2oc2cc(Cn3ccnc3)ccc12
A. class 1

Q. # TODO verify IC50 < 80 nM strictly for this molecule: O=c1c2ccc(Cn3ccnc3)cc2oc2cc(OC3CCCC3)ccc12
A. class 1
